# ASSAY NAME: hydrolysis of esters in phosphate buffer + 10% human serum
# Type: in vitro ADME
# RUN CONDITIONS: buffer with 10% serum; pH 7.4, 10% human serum, 10 μg/ml, 30 min, 37°C, corrected for blank; read-out: % hydrolyzed after 30 min at 37°C, phosphate buffer + 10% human serum
QUANTITY: metabolised at 0.5 h (%)

[[record]]
molecule = "CCC(=O)OC(C)OC(=O)[C@@H]1N2C(=O)[C@@H](NC(=O)[C@H](N)c3ccccc3)[C@H]2SC1(C)C (stereo partly shown)"
quantity = "metabolised at 0.5 h"
value = 17.6

[[record]]
molecule = "CCOC(=O)OC(C)OC(=O)[C@@H]1N2C(=O)[C@@H](NC(=O)[C@H](N)c3cccc(F)c3)[C@H]2SC1(C)C (stereo partly shown)"
quantity = "metabolised at 0.5 h"
value = 37.7

[[record]]
molecule = "CC(=O)OC(C)OC(=O)[C@@H]1N2C(=O)[C@@H](NC(=O)[C@H](N)c3ccccc3)[C@H]2SC1(C)C (stereo partly shown)"
quantity = "metabolised at 0.5 h"
value = 17


(A) CC(=O)OC(C)OC(=O)[C@@H]1N2C(=O)[C@@H](NC(=O)[C@H](N)c3ccc(F)cc3)[C@H]2SC1(C)C (stereo partly shown)
(B) CC(=O)OC(C)OC(=O)[C@@H]1N2C(=O)[C@@H](NC(=O)[C@H](N)c3ccc(O)cc3)[C@H]2SC1(C)C (stereo partly shown)
Incoming: Form field 'greater metabolised at 0.5 h' accepts A or B ; which applies? Please reply using the label of the selected record.
Outgoing: A
(A: 14.3%, B: 6.8%)

----------
# ASSAY NAME: hydrolysis of esters in phosphate buffer
# Format: in vitro ADME
# RUN CONDITIONS: pH 7.4, 10 μg/ml, 30 min, 37°C, corrected for blank, read-out: % hydrolyzed after 30 min at 37°C, phosphate buffer
QUANTITY: degraded at 0.5 h (%)
Response body: numeric value in %, unit text excluded.

[[record]]
molecule = "COC(=O)OCOC(=O)[C@@H]1N2C(=O)[C@@H](NC(=O)[C@H](N)c3ccccc3)[C@H]2SC1(C)C [Example 12]"
units_symbol = "%"
value = 24.8

[[record]]
molecule = "CC(=O)OC(C)OC(=O)[C@@H]1N2C(=O)[C@@H](NC(=O)[C@H](N)c3ccccc3)[C@H]2SC1(C)C (stereo partly drawn) [Example 7]"
units_symbol = "%"
value = 7


Next item in the queue.
Incoming: Sample CC(=O)OC(C)OC(=O)[C@@H]1N2C(=O)[C@@H](NC(=O)C(N)c3ccoc3)[C@H]2SC1(C)C (stereo partly drawn) [Example 29] — what was its degraded at 0.5 h?
Outgoing: 3.5

----------
# ASSAY NAME: hydrolysis of esters in phosphate buffer + 10% human serum
# Format: in vitro ADME
# RUN CONDITIONS: buffer with 10% serum; pH 7.4, 10% human serum, 10 μg/ml, 30 min, 37°C, corrected for blank; read-out: % hydrolyzed after 30 min at 37°C, phosphate buffer + 10% human serum
QUANTITY: metabolised at 0.5 h (%)

Some solved cases for reference:
[[record]]
compound = "CC(=O)OC(C)OC(=O)[C@@H]1N2C(=O)[C@@H](NC(=O)C(N)c3ccoc3)[C@H]2SC1(C)C (stereo partly shown)"
value = 12.4

[[record]]
compound = "CC(C)OC(=O)OCOC(=O)[C@@H]1N2C(=O)[C@@H](NC(=O)[C@H](N)c3ccccc3)[C@H]2SC1(C)C"
value = 68.4

[[record]]
compound = "CC(=O)OC(C)OC(=O)[C@@H]1N2C(=O)[C@@H](NC(=O)[C@H](N)c3cccc(F)c3)[C@H]2SC1(C)C (stereo partly shown)"
value = 16.4


(a) CCCCC(=O)OC(C)OC(=O)[C@@H]1N2C(=O)[C@@H](NC(=O)[C@H](N)c3ccccc3)[C@H]2SC1(C)C (stereo partly shown)
(b) CCOC(=O)OCOC(=O)[C@@H]1N2C(=O)[C@@H](NC(=O)[C@H](N)c3ccccc3)[C@H]2SC1(C)C
Incoming: Select one. Lower metabolised at 0.5 h: a or b Please reply using the label of the selected record.
Outgoing: a

(A) CCOC(=O)OC(C)OC(=O)[C@@H]1N2C(=O)[C@@H](NC(=O)[C@H](N)c3ccc(F)cc3)[C@H]2SC1(C)C (stereo partly shown)
(B) CC(OC(=O)C(C)C)OC(=O)[C@@H]1N2C(=O)[C@@H](NC(=O)[C@H](N)c3ccccc3)[C@H]2SC1(C)C (stereo partly shown)
Incoming: Form field 'greater metabolised at 0.5 h' accepts A or B ; which applies? Please reply using the label of the selected record.
Outgoing: A
(A: 20.2%, B: 12.1%)

----------
# ASSAY NAME: hydrolysis of esters in phosphate buffer
# Assay type: in vitro ADME
# RUN CONDITIONS: pH 7.4, 10 μg/ml, 30 min, 37°C, corrected for blank, read-out: % hydrolyzed after 30 min at 37°C, phosphate buffer
QUANTITY: degraded at 0.5 h (%)

[[record]]
molecule = "CCOC(=O)OC(C)OC(=O)[C@@H]1N2C(=O)[C@@H](NC(=O)[C@H](N)c3cccc(F)c3)[C@H]2SC1(C)C (stereo partly shown) [Example 23]"
value = 2.6

[[record]]
molecule = "CCOC(=O)OCOC(=O)[C@@H]1N2C(=O)[C@@H](NC(=O)[C@H](N)c3ccccc3)[C@H]2SC1(C)C [Example 17]"
value = 13.3

[[record]]
molecule = "CC(=O)OC(C)OC(=O)[C@@H]1N2C(=O)[C@@H](NC(=O)C(N)c3ccc(Cl)cc3)[C@H]2SC1(C)C (stereo partly shown) [Example 26]"
value = 10.8


(a) CC(C)OC(=O)OCOC(=O)[C@@H]1N2C(=O)[C@@H](NC(=O)[C@H](N)c3ccccc3)[C@H]2SC1(C)C [Example 19]
(b) CC(OC(=O)C(C)C)OC(=O)[C@@H]1N2C(=O)[C@@H](NC(=O)[C@H](N)c3ccccc3)[C@H]2SC1(C)C (stereo partly shown) [10 --CH--OCOCH(CH3)2]
Incoming: Form field 'greater degraded at 0.5 h' accepts a or b ; which applies? Please reply using the label of the selected record.
Outgoing: a

(A) CCCCC(=O)OC(C)OC(=O)[C@@H]1N2C(=O)[C@@H](NC(=O)[C@H](N)c3ccccc3)[C@H]2SC1(C)C (stereo partly shown) [10 --CH--OCOC4 H9]
(B) CC(=O)OC(C)OC(=O)[C@@H]1N2C(=O)[C@@H](NC(=O)[C@H](N)c3cccc(F)c3)[C@H]2SC1(C)C (stereo partly shown) [Example 22]
(C) CC(=O)OC(C)OC(=O)[C@@H]1N2C(=O)[C@@H](NC(=O)[C@H](N)c3ccc(F)cc3)[C@H]2SC1(C)C (stereo partly shown) [Example 24]
(D) CCCOC(=O)OCOC(=O)[C@@H]1N2C(=O)[C@@H](NC(=O)[C@H](N)c3ccccc3)[C@H]2SC1(C)C [Example 18]
Incoming: # rank by degraded at 0.5 h, ascending (min first) Form entry: labels listed in requested order.
Outgoing: B, A, C, D
(B: 3.1%, A: 4.9%, C: 9%, D: 14.5%)

(a) CCOC(=O)OC(C)OC(=O)[C@@H]1N2C(=O)[C@@H](NC(=O)[C@H](N)c3ccc(O)cc3)[C@H]2SC1(C)C (stereo partly shown) [Example 28]
(b) CC(=O)OC(C)OC(=O)[C@@H]1N2C(=O)[C@@H](NC(=O)[C@H](N)c3ccc(O)cc3)[C@H]2SC1(C)C (stereo partly shown) [Example 27]
Incoming: Form field 'greater degraded at 0.5 h' accepts a or b ; which applies? Please reply using the label of the selected record.
Outgoing: a

----------
# ASSAY NAME: hydrolysis of esters in phosphate buffer + 10% human serum
# Type: in vitro ADME
# RUN CONDITIONS: buffer with 10% serum; pH 7.4, 10% human serum, 10 μg/ml, 30 min, 37°C, corrected for blank; read-out: % hydrolyzed after 30 min at 37°C, phosphate buffer + 10% human serum
QUANTITY: metabolised at 0.5 h (%)

[[record]]
compound = "CCOC(=O)NCOC(=O)[C@@H]1N2C(=O)[C@@H](NC(=O)[C@H](N)c3ccccc3)[C@H]2SC1(C)C"
units_symbol = "%"
value = 15.2


(P) CCCOC(=O)OCOC(=O)[C@@H]1N2C(=O)[C@@H](NC(=O)[C@H](N)c3ccccc3)[C@H]2SC1(C)C
(Q) CCOC(=O)OC(C)OC(=O)[C@@H]1N2C(=O)[C@@H](NC(=O)[C@H](N)c3ccc(O)cc3)[C@H]2SC1(C)C (stereo partly drawn)
Incoming: Select one. Lower metabolised at 0.5 h: P or Q Please reply using the label of the selected record.
Outgoing: Q
(Q: 33.1%, P: 53.7%)

----------
# ASSAY NAME: hydrolysis of esters in phosphate buffer
# Assay type: in vitro ADME
# RUN CONDITIONS: pH 7.4, 10 μg/ml, 30 min, 37°C, corrected for blank, read-out: % hydrolyzed after 30 min at 37°C, phosphate buffer
QUANTITY: degraded at 0.5 h (%)

[[record]]
compound = "CCOC(=O)NCOC(=O)[C@@H]1N2C(=O)[C@@H](NC(=O)[C@H](N)c3ccccc3)[C@H]2SC1(C)C"
value = 7.1


(1) CCOC(=O)OC(C)OC(=O)[C@@H]1N2C(=O)[C@@H](NC(=O)[C@H](N)c3ccc(F)cc3)[C@H]2SC1(C)C (stereo partly shown)
(2) CC(=O)OC(C)OC(=O)[C@@H]1N2C(=O)[C@@H](NC(=O)C(N)CCC(C)C)[C@H]2SC1(C)C (stereo partly shown)
Incoming: Form field 'greater degraded at 0.5 h' accepts 1 or 2 ; which applies? Please reply using the label of the selected record.
Outgoing: 2
(2: 6%, 1: 1.4%)
